target: UniProt P08908; assay: Mean intrinsic activity was measured for the human 5-hydroxytryptamine 1A receptor; n=3
Sequence (P08908 whole entry): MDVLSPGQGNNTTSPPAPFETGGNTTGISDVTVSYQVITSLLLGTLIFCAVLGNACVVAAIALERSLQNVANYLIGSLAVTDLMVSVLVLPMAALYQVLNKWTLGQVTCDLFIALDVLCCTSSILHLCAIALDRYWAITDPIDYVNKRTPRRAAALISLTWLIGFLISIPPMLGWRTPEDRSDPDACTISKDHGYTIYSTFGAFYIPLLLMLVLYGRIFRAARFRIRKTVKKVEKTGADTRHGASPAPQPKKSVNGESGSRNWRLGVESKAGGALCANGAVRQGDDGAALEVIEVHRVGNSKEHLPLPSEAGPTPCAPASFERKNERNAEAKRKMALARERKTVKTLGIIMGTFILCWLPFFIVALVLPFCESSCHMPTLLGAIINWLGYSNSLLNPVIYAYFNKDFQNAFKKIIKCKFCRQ
experimental endpoint: IA

Some solved entries appear below for comparison.
O=C1COc2ccc(OCC3CCCN(CCOc4cccc5ncccc45)C3)cc2N1 (stereo not given)	0.3
O=C1COc2ccc(OCCNCCCOc3cccc4[nH]ccc34)cc2N1	0.6
O=C1COc2ccc(OCC3CCN(CCOc4cccc5ncccc45)C3)cc2N1 (stereo not given)	0.3

1 = O=C1COc2ccc(OC3CCN(CCOc4cccc5[nH]ccc45)CC3)cc2N1
2 = O=C1COc2ccc(OC3CCN(CCOc4nccc5ccccc45)CC3)cc2N1
## Task // select label with min value of measured IA from [ 1 , 2 ] Let me know the label of the one you choose.
## Result 1
(1: 0.2, 2: 0.8)

Reference source: ChEMBL document CHEMBL1144296
